assay info: Pharmacokinetics of ERL and GEF in Wistar rats after four weeks consumption of water or flavoured water (plasma, UPLC-MS/MS, non-compartmental analysis)
Assay type: in vivo
test parameters: male, Wistar, rat, plasma, oral, 20 mg/kg, PKSolver sheet; dose 20 mg/kg; drug alone (water); time 5 h; read-out: Conc
Experimental: Fifty healthy male Wistar rats weighing 250 ± 30 g were obtained from the animal house, College of Pharmacy, King Saud University, Riyadh, Saudi Arabia. Rats were randomly divided into ten cages (n = 5). […] Cmax and tmax were obtained from the corresponding plasma concentration–time curve (Figs. 1A and 1B). […] The area under the plasma concentration–time curve from time 0 to the last sampling time t, 48 h (AUC0–t) was calculated using the trapezoidal rule. […]
reported metric: concentration at 5 h (ng/mL)

1. COc1cc2ncnc(Nc3ccc(F)c(Cl)c3)c2cc1OCCCN1CCOCC1
2. C#Cc1cccc(Nc2ncnc3cc(OCCOC)c(OCCOC)cc23)c1
Higher concentration at 5 h: 1 or 2 ? // respond with label for picked entry 1
(1: 148 ng/mL, 2: 23.2 ng/mL)

###

assay info: Pharmacokinetics of ERL and GEF in Wistar rats after four weeks consumption of water or flavoured water (plasma, UPLC-MS/MS, non-compartmental analysis)
Format: in vivo
test parameters: male, Wistar, rat, plasma, po, 20 mg/kg, rats, 20 mg/kg oral; four weeks berry FW; n = 5, mean (SD)
reported metric: Cmax (ng/mL)
Output spec: scalar in ng/mL, unitless text.

If you can, please state the reported Cmax value of C#Cc1cccc(Nc2ncnc3cc(OCCOC)c(OCCOC)cc23)c1 [ERL, Erlotinib] . 111

###

assay info: Pharmacokinetics of ERL and GEF in Wistar rats after four weeks consumption of water or flavoured water (plasma, UPLC-MS/MS, non-compartmental analysis)
Type: in vivo
test parameters: male, Wistar, rat, plasma, po, 20 mg/kg, rats, 20 mg/kg oral; four weeks pineapple FW; n = 5, mean (SD); read-out: t½ (converted)
Method: Fifty healthy male Wistar rats weighing 250 ± 30 g were obtained from the animal house, College of Pharmacy, King Saud University, Riyadh, Saudi Arabia. Rats were randomly divided into ten cages (n = 5). […] Cmax and tmax were obtained from the corresponding plasma concentration–time curve (Figs. 1A and 1B). […] The area under the plasma concentration–time curve from time 0 to the last sampling time t, 48 h (AUC0–t) was calculated using the trapezoidal rule. […]
reported metric: half-life (h)
Output spec: scalar in h, unitless text.

If you can, please state the reported half-life value of COc1cc2ncnc(Nc3ccc(F)c(Cl)c3)c2cc1OCCCN1CCOCC1 . 17.8

###

assay info: Pharmacokinetics of ERL and GEF in Wistar rats after four weeks consumption of water or flavoured water (plasma, UPLC-MS/MS, non-compartmental analysis)
Format: in vivo
test parameters: male, Wistar, rat, plasma, po, 20 mg/kg, raw data sheet, from average profile; +Berry FW
reported metric: AUC (ng·h/mL)

a. C#Cc1cccc(Nc2ncnc3cc(OCCOC)c(OCCOC)cc23)c1 [ERL, Erlotinib]
b. COc1cc2ncnc(Nc3ccc(F)c(Cl)c3)c2cc1OCCCN1CCOCC1 [GEF, Gefitinib]
Form: Entry with minimum AUC (choose one): a / b // respond with label for picked entry a
(a: 1330 ng·h/mL, b: 5230 ng·h/mL)

###

assay info: Pharmacokinetics of ERL and GEF in Wistar rats after four weeks consumption of water or flavoured water (plasma, UPLC-MS/MS, non-compartmental analysis)
Format: in vivo
test parameters: male, Wistar, rat, plasma, oral, 20 mg/kg, PKSolver sheet; dose 20 mg/kg; +Lime; time 5 h; read-out: Conc
reported metric: concentration at 5 h (ng/mL)

A. COc1cc2ncnc(Nc3ccc(F)c(Cl)c3)c2cc1OCCCN1CCOCC1 [GEF, Gefitinib]
B. C#Cc1cccc(Nc2ncnc3cc(OCCOC)c(OCCOC)cc23)c1 [ERL, Erlotinib]
Form: Entry with minimum concentration at 5 h (choose one): A / B // respond with label for picked entry B

###

assay info: Pharmacokinetics of ERL and GEF in Wistar rats after four weeks consumption of water or flavoured water (plasma, UPLC-MS/MS, non-compartmental analysis)
Type: in vivo
test parameters: male, Wistar, rat, plasma, po, 20 mg/kg, rats, 20 mg/kg oral; +Berry FW; average; time 3 h; read-out: Conc*10 (ng/mL plasma)
reported metric: concentration at 3 h (ng/mL)

a. COc1cc2ncnc(Nc3ccc(F)c(Cl)c3)c2cc1OCCCN1CCOCC1
b. C#Cc1cccc(Nc2ncnc3cc(OCCOC)c(OCCOC)cc23)c1
Form: Entry with minimum concentration at 3 h (choose one): a / b // respond with label for picked entry b

###

assay info: Pharmacokinetics of ERL and GEF in Wistar rats after four weeks consumption of water or flavoured water (plasma, UPLC-MS/MS, non-compartmental analysis)
Type: in vivo
test parameters: male, Wistar, rat, plasma, po, 20 mg/kg, rats, 20 mg/kg oral; +Lime FW; average; time 0 h; read-out: Conc*10 (ng/mL plasma)
reported metric: concentration at 0 h (ng/mL)

1. C#Cc1cccc(Nc2ncnc3cc(OCCOC)c(OCCOC)cc23)c1 [ERL, Erlotinib]
2. COc1cc2ncnc(Nc3ccc(F)c(Cl)c3)c2cc1OCCCN1CCOCC1 [GEF, Gefitinib]
Form: Entry with minimum concentration at 0 h (choose one): 1 / 2 // respond with label for picked entry 1
(1: 19.8 ng/mL, 2: 157 ng/mL)

###

assay info: Pharmacokinetics of ERL and GEF in Wistar rats after four weeks consumption of water or flavoured water (plasma, UPLC-MS/MS, non-compartmental analysis)
Format: in vivo
test parameters: male, Wistar, rat, plasma, oral, 20 mg/kg, PKSolver sheet; dose 20 mg/kg; +Peach; time 24 h; read-out: Conc
Protocol: Fifty healthy male Wistar rats weighing 250 ± 30 g were obtained from the animal house, College of Pharmacy, King Saud University, Riyadh, Saudi Arabia. Rats were randomly divided into ten cages (n = 5). […] Cmax and tmax were obtained from the corresponding plasma concentration–time curve (Figs. 1A and 1B). […] The area under the plasma concentration–time curve from time 0 to the last sampling time t, 48 h (AUC0–t) was calculated using the trapezoidal rule. […]
reported metric: concentration at 24 h (ng/mL)

A. COc1cc2ncnc(Nc3ccc(F)c(Cl)c3)c2cc1OCCCN1CCOCC1
B. C#Cc1cccc(Nc2ncnc3cc(OCCOC)c(OCCOC)cc23)c1
Form: Entry with minimum concentration at 24 h (choose one): A / B // respond with label for picked entry B
(B: 11.4 ng/mL, A: 85.3 ng/mL)

###

assay info: Pharmacokinetics of ERL and GEF in Wistar rats after four weeks consumption of water or flavoured water (plasma, UPLC-MS/MS, non-compartmental analysis)
Assay type: in vivo
test parameters: male, Wistar, rat, plasma, po, 20 mg/kg, rats, 20 mg/kg oral; four weeks peach FW; n = 5, mean (SD)
reported metric: CL/F (mL/min/kg)

1. COc1cc2ncnc(Nc3ccc(F)c(Cl)c3)c2cc1OCCCN1CCOCC1
2. C#Cc1cccc(Nc2ncnc3cc(OCCOC)c(OCCOC)cc23)c1
Higher CL/F: 1 or 2 ? // respond with label for picked entry 2

###

assay info: Pharmacokinetics of ERL and GEF in Wistar rats after four weeks consumption of water or flavoured water (plasma, UPLC-MS/MS, non-compartmental analysis)
Type: in vivo
test parameters: male, Wistar, rat, plasma, po, 20 mg/kg, rats, 20 mg/kg oral; water (control); n = 5, mean (SD)
reported metric: CL/F (mL/min/kg)

a. COc1cc2ncnc(Nc3ccc(F)c(Cl)c3)c2cc1OCCCN1CCOCC1
b. C#Cc1cccc(Nc2ncnc3cc(OCCOC)c(OCCOC)cc23)c1
Higher CL/F: a or b ? // respond with label for picked entry b
(b: 253 mL/min/kg, a: 77.3 mL/min/kg)

###

assay info: Pharmacokinetics of ERL and GEF in Wistar rats after four weeks consumption of water or flavoured water (plasma, UPLC-MS/MS, non-compartmental analysis)
Assay type: in vivo
test parameters: male, Wistar, rat, plasma, po, 20 mg/kg, rats, 20 mg/kg oral; +Peach FW; average; time 5 h; read-out: Conc*10 (ng/mL plasma)
reported metric: concentration at 5 h (ng/mL)

a. C#Cc1cccc(Nc2ncnc3cc(OCCOC)c(OCCOC)cc23)c1 [ERL, Erlotinib]
b. COc1cc2ncnc(Nc3ccc(F)c(Cl)c3)c2cc1OCCCN1CCOCC1 [GEF, Gefitinib]
Form: Entry with minimum concentration at 5 h (choose one): a / b // respond with label for picked entry a

###

assay info: Pharmacokinetics of ERL and GEF in Wistar rats after four weeks consumption of water or flavoured water (plasma, UPLC-MS/MS, non-compartmental analysis)
Type: in vivo
test parameters: male, Wistar, rat, plasma, po, 20 mg/kg, rats, 20 mg/kg oral; water (control); n = 5, mean (SD); read-out: t½ (converted)
Description: Fifty healthy male Wistar rats weighing 250 ± 30 g were obtained from the animal house, College of Pharmacy, King Saud University, Riyadh, Saudi Arabia. Rats were randomly divided into ten cages (n = 5). […] Cmax and tmax were obtained from the corresponding plasma concentration–time curve (Figs. 1A and 1B). […] The area under the plasma concentration–time curve from time 0 to the last sampling time t, 48 h (AUC0–t) was calculated using the trapezoidal rule. […]
reported metric: half-life (h)

a. COc1cc2ncnc(Nc3ccc(F)c(Cl)c3)c2cc1OCCCN1CCOCC1
b. C#Cc1cccc(Nc2ncnc3cc(OCCOC)c(OCCOC)cc23)c1
Form: Entry with minimum half-life (choose one): a / b // respond with label for picked entry a
